Test system: Rattus norvegicus
Test: Dose normalized AUC in Sprague-Dawley rat at 3 mg/kg, po administered as single cassette dose by LC-MS/MS analysis
Type: ADME, organism-based
Conditions: in vivo
Returns one of met or not met; met when AUC/dose is >= 2000 nmol·h/L.

>>> category("COc1ccc(-c2ncc3c(c2F)-c2[nH]c4c(c2CC3)C(=O)NCC42CN(C)C2)cn1")
"not met"
>>> category("COc1ccc(-c2ncc3c(c2F)-c2[nH]c4c(c2CC3)C(=O)NCC42CN(C)C2)cc1F")
"not met"
>>> category("CN1CC2(CNC(=O)c3c2[nH]c2c3CCc3cnc(-c4cccc(F)c4)c(F)c3-2)C1")
"met"

In plain terms: is recorded AUC/dose at least 2000 nmol·h/L for CN1CC2(CNC(=O)c3c2[nH]c2c3CCc3cnc(-c4cccc(F)c4)cc3-2)C1 ?
not met

Do the same for CN1CC2(CNC(=O)c3c2[nH]c2c3CCc3cnc(-c4cccc(F)c4)nc3-2)C1 please
met

====

Experiment: Permeability of the compound by PAMPA
Assay type: ADME
OBSERVED PROPERTY: log(permeability)
Numbers only.

Worked cases, log(permeability) given:
>>> recorded_value("CN1CC2(CNC(=O)c3c2[nH]c2c3CCc3cnc(-c4cccc(F)c4)nc3-2)C1")
-4.6
>>> recorded_value("CN1CC2(CNC(=O)c3c4c(n(C)c32)-c2cc(-c3cccc(Cl)c3)ncc2CC4)C1")
-3.9
>>> recorded_value("CN1CC2(CNC(=O)c3c2[nH]c2c3CCc3cnc(-c4cccc(F)c4)c(F)c3-2)C1")
-4.1

I have 3 compounds here; please give me log(permeability) for each one.
1. COc1ccc(-c2ncc3c(c2F)-c2[nH]c4c(c2CC3)C(=O)NCC42CN(C)C2)cn1
2. CN1CC2(CNC(=O)c3c2[nH]c2c3CCc3cnc(-c4cccc(F)c4)cc3-2)C1
3. COc1ccc(-c2ncc3c(c2F)-c2[nH]c4c(c2CC3)C(=O)NCC42CN(C)C2)cc1F

[-4.8, -5.2, -4.5]

Values compiled from ChEMBL document CHEMBL4251742.
